Source: patent US9179674B2

Provide the reported melting point of each item.

{"smiles record": "CC(C)CO[C@@H]1[C@@H](Cc2cccc3ccccc23)COC[C@H](N(C(=O)OC(C)(C)C)C(=O)OC(C)(C)C)C(=O)O[C@H]1C", "melting point": "57 to 63 °C"}

Your task in this section: give melting point for each listed record.
1. COc1ccnc(C(=O)N[C@H]2COC[C@H](Cc3ccc(Cl)cc3Cl)[C@@H](OC(=O)C(C)C)[C@H](C)OC2=O)c1O
2. COc1ccnc(C(=O)N[C@H]2COC[C@H](Cc3ccc(F)cc3)[C@@H](OC(=O)C3CC3)[C@H](C)OC2=O)c1O
3. COc1ccnc(C(=O)N[C@H]2COC[C@H](CCc3ccccc3)[C@@H](OC3CCCC3)[C@H](C)OC2=O)c1OCOC(C)=O
4. COc1ccnc(C(=O)N[C@H]2COC[C@H](Cc3cccc4ccccc34)[C@@H](OCC(C)C)[C@H](C)OC2=O)c1O
5. CC(C)C(=O)O[C@@H]1[C@@H](Cc2cccc3ccccc23)COC[C@H](N(C(=O)OC(C)(C)C)C(=O)OC(C)(C)C)C(=O)O[C@H]1C

[reply]
["79 to 82 °C", "68 to 73 °C", "45 to 50 °C", "78 to 80 °C", "130 to 132 °C"]

Dear colleague, could you please provide melting point for the molecules listed below?
1. CCCCCO[C@@H]1[C@@H](CC2CCCC2)COC[C@H](NC(=O)c2nccc(OC)c2O)C(=O)O[C@H]1C
2. COc1ccnc(C(=O)N[C@H]2COC[C@H](CCc3ccccc3)[C@@H](OCC(C)C)[C@H](C)OC2=O)c1OC(C)=O

[reply]
["109 to 111 °C", "61 to 65 °C"]
